settings: human gut metagenome, 24 h, 2 µM; also: call rule not given here

MOLECULE | Bacterial Biotransformation
CCOc1ccc2nc(S(N)(=O)=O)sc2c1 [ETHOXZOLAMIDE] | Compound NOT metabolized
C[N+]12CCC(CC1)C(OC(=O)C(O)(c1ccccc1)c1ccccc1)C2.[Br-] (configuration not stated) [CLIDINIUM BROMIDE] | Compound NOT metabolized
CC(NC(C)(C)C)C(=O)c1cccc(Cl)c1 (configuration not stated) | Compound NOT metabolized
Nc1nc(N)nc(-c2cc(Cl)ccc2Cl)n1.O=C(O)/C=C\C(=O)O [IRSOGLADINE MALEATE] | Compound NOT metabolized
C=C[C@H]1CN2CC[C@H]1C[C@H]2[C@H](O)c1ccnc2ccc(OC)cc12.C=C[C@H]1CN2CC[C@H]1C[C@H]2[C@H](O)c1ccnc2ccc(OC)cc12.O.O.O=S(=O)(O)O [QUININE SULFATE] | Compound NOT metabolized
CN(C)C(=O)Oc1cccc([N+](C)(C)C)c1.[Br-] [NEOSTIGMINE BROMIDE] | Compound NOT metabolized
Cc1nc(Nc2ncc(C(=O)Nc3c(C)cccc3Cl)s2)cc(N2CCN(CCO)CC2)n1 [DASATINIB ANHYDROUS] | Compound metabolized
COc1ccc2c(c1)c(CC(=O)O)c(C)n2C(=O)c1ccc(Cl)cc1 | Compound metabolized
Br.COc1ccc2c(c1)[C@]13CCCC[C@@H]1[C@H](C2)N(C)CC3.O [DEXTROMETHORPHAN HYDROBROMIDE] | Compound metabolized
Cc1cc(C)cc(OCC2CNC(=O)O2)c1 (configuration not stated) | Compound NOT metabolized
CC(C)(C)NC[C@H](O)COc1nsnc1N1CCOCC1.O=C(O)/C=C\C(=O)O [TIMOLOL MALEATE] | Compound NOT metabolized
CCN(CC)C(=O)C1(c2ccccc2)CC1CN (configuration not stated) | Compound NOT metabolized
CC(C)(C)NC(=O)[C@H]1CC[C@H]2[C@@H]3CC[C@H]4NC(=O)C=C[C@]4(C)[C@H]3CC[C@]12C [FINASTERIDE] | Compound metabolized
CN[C@H]1CC[C@@H](c2ccc(Cl)c(Cl)c2)c2ccccc21 | Compound metabolized
COc1ccccc1OCCNCC(O)COc1cccc2[nH]c3ccccc3c12 (configuration not stated) | Compound metabolized
CCOC(=O)C1=C[C@]2(CC)CCCN3CCc4c(n1c1ccccc41)[C@@H]32 | Compound metabolized
CN1CCC[C@@H]1CCO[C@](C)(c1ccccc1)c1ccc(Cl)cc1.O=C(O)/C=C/C(=O)O [CLEMASTINE FUMARATE] | Compound NOT metabolized

* * *

assay: The drug is tested on Z-013 corresponding to rabbit gut metagenome with ENA study accession number: PRJEB37062 and ENA sample accession number: ERS12561813 for biotransformation under anaerobic condition. The drug concentrations were measured over 9 timepoints collected between 0 and 24 hours of incubation by liquid-chromatography-coupled mass spectrometry (LC–MS); details: 2 µM
PROPERTY NAME: Bacterial Biotransformation

COMPOUND | PROPERTY NAME | MEASURED
C=C[C@H]1CN2CC[C@H]1C[C@H]2[C@H](O)c1ccnc2ccc(OC)cc12.C=C[C@H]1CN2CC[C@H]1C[C@H]2[C@H](O)c1ccnc2ccc(OC)cc12.O.O.O=S(=O)(O)O [QUININE SULFATE] | Bacterial Biotransformation | Compound NOT metabolized
O=C1N=C([O-])NC1(c1ccccc1)c1ccccc1.[Na+] [PHENYTOIN SODIUM] | Bacterial Biotransformation | Compound NOT metabolized
c1ccc2[nH]c(-c3cscn3)nc2c1 | Bacterial Biotransformation | Compound NOT metabolized
CC(C)(C)NC(=O)[C@H]1CC[C@H]2[C@@H]3CC[C@H]4NC(=O)C=C[C@]4(C)[C@H]3CC[C@]12C [FINASTERIDE] | Bacterial Biotransformation | Compound metabolized
CCN(C(C)=O)c1cccc(-c2ccnc3c(C#N)cnn23)c1 | Bacterial Biotransformation | Compound NOT metabolized
COc1ccnc(C[S+]([O-])c2nc3ccc(OC(F)F)cc3[nH]2)c1OC (centres undefined) | Bacterial Biotransformation | Compound metabolized
Nc1nnc(-c2cccc(Cl)c2Cl)c(N)n1 | Bacterial Biotransformation | Compound NOT metabolized
CCN(C)C(=O)Oc1cccc([C@H](C)N(C)C)c1.O=C(O)C(O)C(O)C(=O)O [RIVASTIGMINE TARTRATE] | Bacterial Biotransformation | Compound NOT metabolized
CCc1cccc2c3c([nH]c12)C(CC)(CC(=O)O)OCC3 (centres undefined) | Bacterial Biotransformation | Compound NOT metabolized

The reported measurements were obtained from ChEMBL document CHEMBL5724914.
